# test_system: T1, BCMA on cells (293T cells transfected with BCMA; H929, MM.1S and U266 cell lines expressing BCMA) (human, UniProt Q02223 1-184)
# T1 construct: H929, MM.1S and U266 carry the native protein; also called B-cell Maturation Antigen; TNFRSF17
# T1 sequence: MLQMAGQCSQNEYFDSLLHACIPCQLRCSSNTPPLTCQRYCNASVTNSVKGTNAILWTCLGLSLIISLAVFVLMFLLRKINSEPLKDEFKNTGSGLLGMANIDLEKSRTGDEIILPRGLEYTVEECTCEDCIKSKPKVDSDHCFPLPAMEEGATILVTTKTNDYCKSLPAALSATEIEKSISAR
# test_protocol: flow cytometry, 293T cells transfected with BCMA, above parental 293T background; further: test concentration or dose not given here
quantity_name: Positive (%)
Output spec: scalar in %, unitless text.

Enquiry: What value of measured Positive (%) is listed for SCT-Aa13(h/h) (antibody, V domains shown, Full IgG format, chimeric: human IgG1 heavy chain constant region, human kappa light chain constant region) VH: QVQLQQSDAELVKPGASVKISCKVSGYTFTDYTIHWMKQRPEQGLEWIGYIYPRDGSTKYNEKFKGKATLTADKSSSTAYMQLNSLTSEDSAVYFCARWDYEGFDYWGQGTTLTVSS VL: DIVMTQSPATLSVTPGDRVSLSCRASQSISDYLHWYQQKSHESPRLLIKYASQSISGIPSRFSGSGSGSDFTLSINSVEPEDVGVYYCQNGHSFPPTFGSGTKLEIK ?
Return: 74.3
